assay: Aqueous kinetic solubility assay; format: physicochemical; details: PBS, pH 7.4
RECORDED METRIC: solubility at 1 h (µM)

>  <COMPOUND>
CN1CCC(c2cc3oc(=O)n(C(=O)NCCCCc4ccccc4)c3cc2F)CC1 [22p]

>  <VALUE UNITS>
µM

>  <solubility at 1 h>
70

$$$$
>  <COMPOUND>
CCN1CCC(c2ccc3c(c2)oc(=O)n3C(=O)NCCCCc2ccccc2)CC1 [22f]

>  <VALUE UNITS>
µM

>  <solubility at 1 h>
198

$$$$
>  <COMPOUND>
Cl.O=C(NCCCCc1ccccc1)n1c(=O)oc2cc(C3CCNCC3)ccc21 [22d]

>  <VALUE UNITS>
µM

>  <solubility at 1 h>
150

$$$$

A: CN1CCC(c2ccc3c(c2)oc(=O)n3C(=O)NCCCCc2ccccc2)CC1=O (stereo not drawn) [22q]
B: CCCCCNC(=O)n1c(=O)oc2cc(C3CCN(C)CC3)ccc21 [22k]
Prompt: Pick one: A or B . Which has the bigger solubility at 1 h number? Refer to your chosen item by its label in the answer.
Completion: B
(B: 240 µM, A: 20 µM)

###

test: Plasma and brain concentrations in 4L;C* mice; format: in vivo, mouse; conditions: both sexes, 4L;C* (C57BL/6 J/129SvEV), mouse, plasma, ip, 30 mg kg^–1, 4L;C* mice, 30 mg kg^–1 i.p., 1 h after last dose (day 14); read-out: Cp (μM) plasma concentration
RECORDED METRIC: concentration at 1 h (µM)
Your answer should be a plain number; it is taken to be in µM.

Prompt: GET /values?readout=concentration at 1 h&item= CC(C)CNC(=O)n1c(=O)oc2cc(C3CCN(C)CC3)ccc21 [22m]
Completion: 3.08

###

Target: AC (Homo sapiens, UniProt Q13510)
Sequence (Q13510 22-395): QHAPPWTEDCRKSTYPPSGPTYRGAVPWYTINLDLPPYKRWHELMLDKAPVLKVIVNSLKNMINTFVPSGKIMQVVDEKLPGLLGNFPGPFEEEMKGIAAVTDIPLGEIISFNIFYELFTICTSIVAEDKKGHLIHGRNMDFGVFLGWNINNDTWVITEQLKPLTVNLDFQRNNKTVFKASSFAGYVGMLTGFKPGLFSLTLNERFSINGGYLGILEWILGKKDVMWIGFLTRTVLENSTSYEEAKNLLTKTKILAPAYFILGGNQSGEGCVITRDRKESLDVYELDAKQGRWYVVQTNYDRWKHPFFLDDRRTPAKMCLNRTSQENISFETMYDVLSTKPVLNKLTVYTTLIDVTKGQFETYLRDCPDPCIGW
Assay: Fluorogenic hAC assay on hAC-enriched lysate of HEK293 cells
Format: biochemical
Parameters: expressed in transfected cells
Settings: hAC expressed in HEK-293 cells; read-out: hAC IC50 (μM)±SD
Description: HEK293 cells stably expressing hAC were grown in Dulbecco’s modified Eagle medium (DMEM) containing 10% FBS, 1% glutamine, 1 mM sodium pyruvate, and 500 μg mL^–1 G418. Cells were harvested, and pellets were stored at −80 °C until lysosomal-enriched lysate preparation. […] The suspension was finally centrifuged at 105000 × g for 1 h at 4 °C, and protein concentration was measured in the supernatant with the bicinchoninic acid based protein assay. […]
RECORDED METRIC: IC50 (µM)

Before answering, review these 4 worked examples.
>  <COMPOUND>
CN1CCC(c2ccc3c(c2)oc(=O)n3C(=O)NCCCCc2ccc(F)cc2)CC1 [22o]

>  <RECORDED METRIC>
IC50

>  <OBS VALUE>
0.094

$$$$
>  <COMPOUND>
CC(C)CNC(=O)n1c(=O)oc2cc(C3CCN(C)CC3)ccc21 [22m]

>  <RECORDED METRIC>
IC50

>  <OBS VALUE>
0.166

$$$$
>  <COMPOUND>
CN1CCC(c2ccc3c(c2)oc(=O)n3C(=O)NCCCCc2ccccc2)CC1 [22e]

>  <RECORDED METRIC>
IC50

>  <OBS VALUE>
0.129

$$$$
>  <COMPOUND>
O=C(NCCCCc1ccccc1)n1c(=O)oc2cc(C3CCCCC3)ccc21 [22a]

>  <RECORDED METRIC>
IC50

>  <OBS VALUE>
0.089

$$$$

I: O=C(NCCCCc1ccccc1)n1c(=O)oc2cc(C3CCOCC3)ccc21 [22b]
II: CCOCCNC(=O)n1c(=O)oc2cc(C3CCN(C)CC3)ccc21 [22l]
III: CN1CCC(c2ccc3c(c2)oc(=O)n3C(=O)NCCOCc2ccccc2)CC1 [22j]
IV: CC(C)CN1CCN(c2ccc3c(c2)oc(=O)n3C(=O)NCCCCc2ccccc2)CC1 [23i]
V: CC(C)CNC(=O)n1c(=O)oc2c(C3CCN(C)CC3)cccc21
Prompt: Rank descending by IC50. Provide your answer as the labels ordered per the instruction.
Completion: II, V, III, IV, I
(II: 1.05 µM, V: 0.535 µM, III: 0.215 µM, IV: 0.127 µM, I: 0.068 µM)

###

experiment: In vivo pharmacokinetic study in male CD1 mice; settings: mouse, po, CSF, 10 mg kg^–1 p.o.
RECORDED METRIC: Cmax at 24 h (ng/mL)
Numbers only here, please. The scale is ng/mL.

Prompt: Query: Cmax at 24 h; subject: CC(C)CNC(=O)n1c(=O)oc2cc(C3CCN(C)CC3)ccc21 [22m]
Completion: 52.2

###

experiment: In vivo pharmacokinetic study in male CD1 mice; details: mouse, po, brain, 10 mg kg^–1 p.o.
RECORDED METRIC: half-life at 24 h (h)
Return type: number; implicit unit h.

Prompt: Can you look up the measured half-life at 24 h of CC(C)CNC(=O)n1c(=O)oc2cc(C3CCN(C)CC3)ccc21 [22m] for me?
Completion: 1.18

###

assay: In vivo pharmacokinetic study in male CD1 mice; conditions: mouse, iv, CSF, 3 mg kg^–1 i.v.
RECORDED METRIC: Tmax (min)
Express your answer in min, writing the number without its unit.

Prompt: Need Tmax, item CC(C)CNC(=O)n1c(=O)oc2cc(C3CCN(C)CC3)ccc21 [22m]
Completion: 15

###

assay: Plasma and brain concentrations in 4L;C* mice; assay type: in vivo, mouse; conditions: both sexes, 4L;C* (C57BL/6 J/129SvEV), mouse, plasma, ip, 90 mg kg^–1, 4L;C* mice, 90 mg kg^–1 i.p., 1 h after last dose (day 14); read-out: Cp (μM) plasma concentration
RECORDED METRIC: concentration at 1 h (µM)
I only need the number, in µM, no unit after it.

Prompt: Can you look up the measured concentration at 1 h of CC(C)CNC(=O)n1c(=O)oc2cc(C3CCN(C)CC3)ccc21 [22m] for me?
Completion: 16.8

###

Measured half-life at 4.6 μM of individual entries
assay: In vitro microsomal stability study; assay type: in vitro ADME; details: pH 7.4; mouse liver microsomes; read-out: m-LM t1/2

Use the examples below as a reference point.
>  <COMPOUND>
CN1CCN(c2ccc3c(c2)oc(=O)n3C(=O)NCCCCc2ccccc2)CC1 [23f]

>  <half-life at 4.6 μM>
< 0.0833 h

$$$$
>  <COMPOUND>
CN1CCN(c2ccc3c(c2)oc(=O)n3C(=O)NCCCCc2ccccc2)C(=O)C1 [23k]

>  <half-life at 4.6 μM>
< 0.0833 h

$$$$
>  <COMPOUND>
CCN1CCN(c2ccc3c(c2)oc(=O)n3C(=O)NCCCCc2ccccc2)CC1 [23g]

>  <half-life at 4.6 μM>
< 0.0833 h

$$$$
>  <COMPOUND>
CC(C)CN1CCC(c2ccc3c(c2)oc(=O)n3C(=O)NCCCCc2ccccc2)CC1 [22h]

>  <half-life at 4.6 μM>
1 h

$$$$
>  <COMPOUND>
CN1CCC(c2cc3oc(=O)n(C(=O)NCCCCc4ccccc4)c3cc2F)CC1 [22p]

>  <half-life at 4.6 μM>
> 1 h

$$$$
>  <COMPOUND>
CC(C)CNC(=O)n1c(=O)oc2cc(C3CCCN(C)C3)ccc21 (racemic)

>  <half-life at 4.6 μM>
> 1 h

$$$$
>  <COMPOUND>
CCCCCNC(=O)n1c(=O)oc2cc(C3CCN(C)CC3)ccc21 [22k]

>  <half-life at 4.6 μM>
> 1 h

$$$$
>  <COMPOUND>
Cl.O=C(NCCCCc1ccccc1)n1c(=O)oc2cc(C3CCNCC3)ccc21 [22d]

>  <half-life at 4.6 μM>
> 1 h

$$$$

Please turn your attention to the following entry.
Prompt: What value of measured half-life at 4.6 μM is listed for CC(C)CNC(=O)n1c(=O)oc2cc(C3CCN(C)CC3)ccc21 [22m] ?
Completion: > 1 h

###

assay: In vivo pharmacokinetic study in male CD1 mice; conditions: mouse, iv, brain, 3 mg kg^–1 i.v.
RECORDED METRIC: Tmax (min)
Numbers only; they are read as min.

Prompt: For the compound CC(C)CNC(=O)n1c(=O)oc2cc(C3CCN(C)CC3)ccc21 [22m] , what Tmax is on record?
Completion: 15

###

experiment: Plasma and brain concentrations in Twitcher mice; assay type: in vivo; settings: both sexes, Twitcher (GALC–/−), mouse, brain, ip, 90 mg kg^–1, Twitcher mice, 90 mg kg^–1 i.p., 1 h after last dose (day 20); read-out: Cb (μM) brain concentration
RECORDED METRIC: concentration at 1 h (µM)
Field: numeric (µM). Do not append units.

Prompt: Given CC(C)CNC(=O)n1c(=O)oc2cc(C3CCN(C)CC3)ccc21 [22m] , state its recorded concentration at 1 h.
Completion: 308
